target-under-test: Calpain-1 catalytic subunit (Homo sapiens, UniProt P07384)
Sequence (P07384 whole entry): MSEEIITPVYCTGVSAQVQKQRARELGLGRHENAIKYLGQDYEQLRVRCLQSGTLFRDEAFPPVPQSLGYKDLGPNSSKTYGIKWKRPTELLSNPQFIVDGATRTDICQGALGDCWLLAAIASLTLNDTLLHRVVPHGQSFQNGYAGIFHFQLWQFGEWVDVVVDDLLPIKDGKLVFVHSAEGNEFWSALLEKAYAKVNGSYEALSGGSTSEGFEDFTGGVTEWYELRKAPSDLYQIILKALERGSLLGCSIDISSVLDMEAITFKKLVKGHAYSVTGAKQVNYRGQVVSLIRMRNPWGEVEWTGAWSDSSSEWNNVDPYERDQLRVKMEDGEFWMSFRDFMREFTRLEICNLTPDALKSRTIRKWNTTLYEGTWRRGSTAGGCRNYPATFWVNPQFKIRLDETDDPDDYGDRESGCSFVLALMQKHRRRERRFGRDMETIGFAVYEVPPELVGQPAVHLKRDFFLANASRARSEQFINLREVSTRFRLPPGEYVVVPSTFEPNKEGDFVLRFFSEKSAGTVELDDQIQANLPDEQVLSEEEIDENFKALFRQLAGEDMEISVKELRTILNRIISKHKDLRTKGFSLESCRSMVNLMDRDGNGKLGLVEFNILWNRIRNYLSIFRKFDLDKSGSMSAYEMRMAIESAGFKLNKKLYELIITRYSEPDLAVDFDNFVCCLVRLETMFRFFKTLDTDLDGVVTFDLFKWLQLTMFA
test: Inhibition of human erythrocytes mu-calpain using SLLVY-AMC as substrate after 60 mins
measurement-label: pKi
Recall that pKi is obtained by taking minus log10 of the concentration measured in molar.

Print Calpain-1 catalytic subunit (Homo sapiens, UniProt P07384) pKi for "O=C(O)/C(S)=C/c1ccc(I)cc1" .
6.68

Print Calpain-1 catalytic subunit (Homo sapiens, UniProt P07384) pKi for "O=C(O)/C(S)=C/c1c[nH]c2ccc(F)cc12" .
6.59

###

target-under-test: Calpain-1 catalytic subunit (Sus scrofa)
Sequence (P35750 whole entry): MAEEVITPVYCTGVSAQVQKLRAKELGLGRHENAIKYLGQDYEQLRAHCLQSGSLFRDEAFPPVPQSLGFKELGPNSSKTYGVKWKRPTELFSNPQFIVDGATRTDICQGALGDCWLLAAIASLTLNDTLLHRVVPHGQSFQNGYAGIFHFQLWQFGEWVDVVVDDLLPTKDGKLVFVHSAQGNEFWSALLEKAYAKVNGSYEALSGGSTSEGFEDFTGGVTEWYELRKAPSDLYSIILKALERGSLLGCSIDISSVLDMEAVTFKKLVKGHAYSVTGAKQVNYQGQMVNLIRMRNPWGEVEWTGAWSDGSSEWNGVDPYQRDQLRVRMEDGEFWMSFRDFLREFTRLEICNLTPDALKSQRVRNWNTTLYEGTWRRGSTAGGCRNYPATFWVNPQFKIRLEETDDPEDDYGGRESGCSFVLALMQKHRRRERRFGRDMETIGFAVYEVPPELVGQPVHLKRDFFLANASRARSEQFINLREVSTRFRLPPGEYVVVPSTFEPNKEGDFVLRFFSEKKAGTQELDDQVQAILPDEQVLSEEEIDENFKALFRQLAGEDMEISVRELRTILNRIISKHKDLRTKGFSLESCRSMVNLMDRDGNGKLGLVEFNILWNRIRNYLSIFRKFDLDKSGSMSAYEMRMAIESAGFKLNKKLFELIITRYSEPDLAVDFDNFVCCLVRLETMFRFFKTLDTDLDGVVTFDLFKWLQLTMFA
test: Inhibition of Ca2+-dependent activation of porcine calpain-1 using SucLY-AMC as substrate
measurement-label: log10(IC50) (log10 of the value in nM)
// units: nM (pre-log); metric: IC50; scale: log10

Item "O=C(O)/C(S)=C/c1c[nH]c2cccc(Cl)c12" : provide log10(IC50)
2.15

Item "O=C(O)/C(S)=C/c1c[nH]c2c(F)cccc12" : provide log10(IC50)
2.04

Item "O=C(O)/C(S)=C/c1cccc(Cl)c1" : provide log10(IC50)
4.12

Item "O=C(O)/C(S)=C/c1c[nH]c2ccc(I)cc12" : provide log10(IC50)
1.95

Item "O=C(O)/C(S)=C/c1c[nH]c2cc(Br)ccc12" : provide log10(IC50)
1.95

Item "O=C(O)/C(S)=C/c1c[nH]c2ccc(Br)cc12" : provide log10(IC50)
1.30

Item "O=C(O)/C(S)=C/c1cccc(Br)c1" : provide log10(IC50)
3.92

Item "O=C(O)/C(S)=C/c1c[nH]c2cc(Cl)ccc12" : provide log10(IC50)
2.00

Item "O=C(O)/C(S)=C/c1ccccc1Br" : provide log10(IC50)
3.96

Item "O=C(O)/C(S)=C/c1ccc(F)cc1" : provide log10(IC50)
3.75

Item "O=C(O)/C(S)=C/c1c[nH]c2c(Cl)cccc12" : provide log10(IC50)
1.95

Item "O=C(O)/C(S)=C/c1c[nH]c2c(I)cccc12" : provide log10(IC50)
2.34
